// reported growth inhibition per item
# METHOD: NCI Yeast Anticancer Drug Screen. Data for the bub3 strain (AID 167)
# ASSAY SETUP: S. cerevisiae bub3 mutant strain, at 50.0 µM, active compounds read high
About 79,000 compounds went through this panel and 15% of them were active in at least one assay; those are over-represented in the sample as a whole.
Give the number; % is assumed, so skip it.

Examples from the recorded data:
COMPOUND	REPORTED METRIC	RECORDED RESULT
O=C1OC(=O)C2CCCC3CCCC1C32 (stereo not given)	growth inhibition	71.5
COc1ccc(O)c(/C=N\Nc2ccccc2)c1	growth inhibition	98.9
O=C(OCC=C1CCCC1)c1cc([N+](=O)[O-])cc([N+](=O)[O-])c1	growth inhibition	5.55
CC(C)[N+]([O-])(CCCNc1c2ccccc2nc2cccc([N+](=O)[O-])c12)C(C)C	growth inhibition	11.9

Fill blank: measured growth inhibition of the compound CC1(C)C(=O)OC(n2cc(F)c(=O)[nH]c2=O)C1=O (stereo not given) is ____.
27.1

Name the reported growth inhibition value associated with the compound CCC[CH2][Ge]([CH2]CCC)([CH2]CCC)[O]C(=O)C(OC)c1ccccc1 (stereo not given)
76

Would you kindly share the measured growth inhibition for [N-]=[N+]=NC1=C(c2ccccn2)C(=O)c2cccc3cccc1c23 ?
69.6

Item under review: CCc1ccc(NS(=O)(=O)c2ccccc2)c([N+](=O)[O-])c1 . Reported growth inhibition?
53.6

Which measured growth inhibition value corresponds to CC(C)NC(=O)OCc1c(COC(=O)NC(C)C)c(-c2ccc(Cl)c(Cl)c2)n2c1CCC2 ?
17.4

Please report the recorded growth inhibition for Cc1c(C(=O)C(=O)c2ccccc2)c(C)c(C(=O)C(=O)c2ccccc2)c(C)c1C(=O)C(=O)c1ccccc1 .
56.4

* * *

Known growth inhibition of a selection of compounds
# METHOD: NCI Yeast Anticancer Drug Screen. Data for the mec2-1 strain (AID 157)
# ASSAY SETUP: S. cerevisiae mec2-1 strain, at 50.0 µM (retest, dose inferred, filed as 5.0), active compounds read high
Compounds without any hit were thinned out: in the full panel of roughly 79,000, 15% have a hit.
Field: numeric (%). Do not append units.

COMPOUND	growth inhibition, %
O=C(Nc1ccccc1)C(=O)C(C(=O)c1ccccc1)C(c1ccccc1)c1ccccc1 (centres undefined)	78
Nc1nc(-c2cccnc2)cc(-c2cc(-c3cccnc3)nc(N)n2)n1	33
CCCCCCCCCCC1CCC(=O)O1 (centres undefined)	27

Would you kindly look at the next entry?
Can you look up the measured growth inhibition of O=C(NC(Nc1ccc(F)c(Cl)c1)(C(F)(F)F)C(F)(F)F)C(C(F)(F)F)C(F)(F)F for me?
92

* * *

# METHOD: NCI Yeast Anticancer Drug Screen. Data for the bub3 strain (AID 167)
# ASSAY SETUP: S. cerevisiae bub3 mutant strain, at 11.0 µM, active compounds read high
This is part of a sample that, as a whole, favours compounds with a hit. Of some 79,000 tested, about 15% had one in any assay.
Reported growth inhibition values for a set of compounds
Please state the figure in %; there is no need to write the unit.

COMPOUND	RECORDED RESULT
CC(=O)OCC(=O)C1(O)CCC2C3CCC4CCCCC4(C)C3CCC21C (stereo not given)	26
[N-]=N[N+]#I1OC(C(F)(F)F)(C(F)(F)F)c2ccccc21	99
CN(C)Cc1cc(N=Nc2ccc(Cl)cc2)cc(CN(C)C)c1O	2
CSc1nc(=S)[nH]c2c1c(C)nn2-c1ccccc1	-15
O=C(CC(=O)n1nc(-c2ccccc2)c(N=Nc2ccccc2C(=O)O)c1-c1ccccc1)Nc1ccc(Cl)cc1	28

Would you mind telling me what growth inhibition value was observed for CCC#CCCCOC(=O)c1cc([N+](=O)[O-])cc([N+](=O)[O-])c1 ?
-6

Find the recorded growth inhibition belonging to CN(C)c1nc2sc3c(c2c(=O)o1)CCCC3 and report it.
44

For the compound shown here, O=C1C=CC(=Nc2ccc3c(c2)Cc2cc(NC(=O)C(F)(F)F)ccc2-3)O1 , give the reported growth inhibition.
0

Given S=C(N/N=C/c1ccccn1)Nc1ccc(Cl)cc1 , state its recorded growth inhibition.
-2

* * *

# METHOD: NCI Yeast Anticancer Drug Screen. Data for the bub3 strain (AID 167)
# ASSAY SETUP: S. cerevisiae bub3 mutant strain, at 1.2 µM, active compounds read high
Compounds without any hit were thinned out: in the full panel of roughly 79,000, 15% have a hit.
REPORTED METRIC: growth inhibition (%)
Quick reminder: number only, in %, skip the unit.

Worked examples, 3 compounds total:
SMILES NOTATION	UNIT TEXT	growth inhibition
O=C(N=Nc1ccccc1Cl)NNc1ccccc1Cl	%	2
O=C1C=CC(=O)N1c1ccc2c(c1)Cc1cc(NC(=O)C(F)(F)F)ccc1-2	%	-11
Cc1c(C(=O)C(=O)c2ccccc2)c(C)c(C(=O)C(=O)c2ccccc2)c(C)c1C(=O)C(=O)c1ccccc1	%	-2

Shift focus to the following entry.
GET /values?readout=growth inhibition&item= Oc1c(Br)cc(Br)cc1C1CCCCC1
7

* * *

# METHOD: NCI Yeast Anticancer Drug Screen. Data for the sgs1 strain (AID 173);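 further: 0% = growth of vehicle-only control cultures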
# ASSAY SETUP: S. cerevisiae sgs1 mutant, at 3.7 µM, active compounds read high
# Procedure: Growth inhibition of yeast strains with defined genetic alterations is measured as a screen for potential anti-cancer activity. Selected strains with alterations in DNA damage repair or cell cycle control were exposed to compounds and growth inhibition was measured relative to vehicle treated controls. The strain used in this assay is sgs1
Compounds without any hit were thinned out: in the full panel of roughly 79,000, 15% have a hit.
REPORTED METRIC: growth inhibition (%)
Express the result in % but write the number alone.

Below are worked cases with known answers.
SMILES NOTATION	RECORDED RESULT
O=C(c1cc(Br)ccc1O)c1cc(Br)ccc1O	90
N#CN=Nc1cc(Cl)c(N=NC#N)cc1Cl	-15
O=[N+]([O-])c1ccc(=S)[nH]c1	4
CC(C)C1=CC2=C[C@H](O)[C@H]3C(C)(C)CCC[C@]3(C)C2=C(O)C1=O	15
NCCNc1ccc(NCCN)c2c1C(=O)c1c(O)ccc(O)c1C2=O	42

Here's the next entry for you.
Sample CCCC/C=C/C(CC)(C(=O)OCC)C(=O)OCC — what was its growth inhibition?
1

* * *

# METHOD: NCI Yeast Anticancer Drug Screen. Data for the rad52 strain (AID 147);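 further: 0% = growth of vehicle-treated control cultures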
# ASSAY SETUP: S. cerevisiae rad52 mutant growth inhibition; at 11.0 µM; active compounds read high
The panel holds about 79,000 compounds, 15% with a hit somewhere; the sample as a whole holds those more often.
# label = MET if growth inhibition >= 20% else NOT MET

Take a look at these entries with their results.
MOLECULE	CATEGORY LABEL
O=C1Nc2ccccc2/C1=C/COc1ccccc1	MET
CC(C)C1=CC2=C[C@H](O)[C@H]3C(C)(C)CCC[C@]3(C)C2=C(O)C1=O	MET
N#CSc1ccc(S(N)(=O)=O)cc1	NOT MET

Say whether CC(=O)OCC(=O)C1(O)CCC2C3CCC4CCCCC4(C)C3CCC21C (stereo not given) shows growth inhibition of 20% or more.
MET

* * *

# METHOD: NCI Yeast Anticancer Drug Screen. Data for the rad14 strain (AID 159);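 further: 0% = growth of vehicle-treated control cultures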
# ASSAY SETUP: S. cerevisiae rad14 strain growth inhibition; at 100.0 µM
About 79,000 compounds went through this panel and 15% of them were active in at least one assay; those are over-represented in the sample as a whole. Activity calls are given as the source filed them. Rule as the data show it: active = growth inhibition above about 70%; inactive = the rest.
A correct response names exactly one class from Yes (active), No (inactive)

COMPOUND	CATEGORY LABEL
O=C(CCCN1CCC(O)(c2ccc(Cl)cc2)CC1)c1ccc(F)cc1	Yes
Cn1c(=O)c(-c2ccccc2)c(N=[N+]=[N-])c2ccccc21	Yes
Cc1ccc(S(=O)(=O)NC(=O)NC2=NC(C)(C)N(c3ccc(Cl)c(Cl)c3)C(N)=N2)cc1	No

What classification did CCCCCCc1cc(C(=O)OC/C(C)=N/NC(N)=O)c2ccccc2n1 end up with in this test?
No

GET /call?item= C/C(=N\O)C1CC2C=C(C#N)C1N(Cc1ccccc1)C2 (stereo unspecified) returns the recorded outcome of this test.
No

Per the records of this test, what outcome belongs to CC(C)(C)c1nc2c(o1)C(=O)c1ccccc1C2=O ?
Yes

* * *

# METHOD: NCI Yeast Anticancer Drug Screen. Data for the cln2 rad14 strain (AID 165);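 further: 0% = growth equal to vehicle treated cultures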
# ASSAY SETUP: S. cerevisiae cln2 rad14 strain, at 50.0 µM
Compounds without any hit were thinned out: in the full panel of roughly 79,000, 15% have a hit. Calls of active or inactive are those of the source. Rule as the data show it: active = growth inhibition above about 70%; inactive = the rest.
Would you mind answering with one of these outcomes? active, inactive

COMPOUND	CATEGORY LABEL
N#Cc1c(N)[nH]c2ccc(Sc3ccccc3)cc12	inactive

// switching to the query compound
Name the outcome recorded for Cc1c(C(Cc2ccccc2N(C)C(=O)/C=C\C(=O)O)c2c[nH]c3ccccc23)c2ccccc2n1C (configuration not stated) in the assay.
active
